# TARGET: T1, EsCas13d, nuclease-dead (Eubacterium siraeum, UniProt B0MS50, R295A;H300A;R849A;H854A)
# T1 sequence: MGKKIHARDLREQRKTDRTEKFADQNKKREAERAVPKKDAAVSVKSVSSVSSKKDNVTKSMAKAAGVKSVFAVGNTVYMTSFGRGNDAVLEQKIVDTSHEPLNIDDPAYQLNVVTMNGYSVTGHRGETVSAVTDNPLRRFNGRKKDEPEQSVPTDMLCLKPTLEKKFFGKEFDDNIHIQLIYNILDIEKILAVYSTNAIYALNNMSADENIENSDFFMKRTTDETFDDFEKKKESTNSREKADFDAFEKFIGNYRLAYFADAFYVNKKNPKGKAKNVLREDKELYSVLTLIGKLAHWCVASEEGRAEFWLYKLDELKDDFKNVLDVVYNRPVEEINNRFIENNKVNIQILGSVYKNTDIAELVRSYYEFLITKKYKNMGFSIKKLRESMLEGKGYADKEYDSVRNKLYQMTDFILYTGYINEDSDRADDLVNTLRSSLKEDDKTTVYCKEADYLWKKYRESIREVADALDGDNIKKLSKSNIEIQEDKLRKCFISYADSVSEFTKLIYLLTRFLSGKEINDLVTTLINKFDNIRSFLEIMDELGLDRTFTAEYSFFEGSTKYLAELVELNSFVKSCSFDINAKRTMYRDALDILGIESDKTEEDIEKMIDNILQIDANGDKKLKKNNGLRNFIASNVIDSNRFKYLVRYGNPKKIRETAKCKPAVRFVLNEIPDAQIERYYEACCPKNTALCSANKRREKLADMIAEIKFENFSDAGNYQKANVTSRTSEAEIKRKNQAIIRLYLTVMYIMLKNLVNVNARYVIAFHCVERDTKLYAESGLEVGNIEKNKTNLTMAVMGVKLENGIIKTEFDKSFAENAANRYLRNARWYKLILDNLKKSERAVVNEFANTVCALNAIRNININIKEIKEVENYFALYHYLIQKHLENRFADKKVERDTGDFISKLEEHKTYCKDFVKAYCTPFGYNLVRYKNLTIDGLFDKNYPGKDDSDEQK
# METHOD_DESCRIPTION: crRNA (strand 1, pre-loaded); Mg2+; 40 mM Tris-HCl pH 7.5, 150 mM NaCl, 6 mM MgCl2, 1 mM DTT, 0.1% Tween-20, 0.2 mg/ml BSA; 25 C; 10 min per concentration, then washed
# MEASUREMENT_PARAMETERS: tags: His6-TwinStrep-SUMO cleaved; N-terminal SNAP kept (SNAP-Surface 488); label: 3' end held by stalled T7 RNA polymerase
MEASURED_QUANTITY: Kd
Kindly format the answer as number then unit.

target 1 MT 5'PFS AGA 3'PFS ACA (mixed) RNA 1: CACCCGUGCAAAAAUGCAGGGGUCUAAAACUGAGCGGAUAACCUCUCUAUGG RNA 2: GGGAAUGGAUCCACAUCUACGAAUUCAGACCAUAGAGAGGUUAUCCGCUCAACAAGAUCGGAAGAGCACACGU
56 nM
target 2 MT 5'PFS ACU 3'PFS CCG (mixed) RNA 1: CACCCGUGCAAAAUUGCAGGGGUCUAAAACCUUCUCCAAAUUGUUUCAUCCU RNA 2: GGGAAUGGAUCCACAUCUACGAAUUCACUAGGAUGAAACAAUUUGGAGAAGCCGAGAUCGGAAGAGCACACGU
6.2 nM
target 1 insU 3' of 20,insC 3' of 12 (mixed) RNA 1: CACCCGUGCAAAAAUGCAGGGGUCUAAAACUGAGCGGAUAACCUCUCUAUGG RNA 2: GGGAAUGGAUCCACAUCUACGAAUUCGUACCAUUAGAGAGGCUUAUCCGCUCACCGAGAUCGGAAGAGCACACGU
37 nM

Record Kd for all entries; do not skip any.
1. target 2 MT 5'PFS UAC 3'PFS UUU (mixed) RNA 1: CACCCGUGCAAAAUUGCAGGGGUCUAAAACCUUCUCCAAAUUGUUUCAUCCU RNA 2: GGGAAUGGAUCCACAUCUACGAAUUCUACAGGAUGAAACAAUUUGGAGAAGUUUAGAUCGGAAGAGCACACGU
2. target 2 MT 5'PFS AGU 3'PFS CCA (mixed) RNA 1: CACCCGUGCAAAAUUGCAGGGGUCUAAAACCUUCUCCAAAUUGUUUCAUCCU RNA 2: GGGAAUGGAUCCACAUCUACGAAUUCAGUAGGAUGAAACAAUUUGGAGAAGCCAAGAUCGGAAGAGCACACGU

Ans:
1: 11.9 nM; 2: 36 nM

// each listed binder needs a value for Kd
1. target 2 MT 5'PFS UCU 3'PFS CUC (mixed) RNA 1: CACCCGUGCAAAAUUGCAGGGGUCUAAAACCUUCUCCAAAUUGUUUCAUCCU RNA 2: GGGAAUGGAUCCACAUCUACGAAUUCUCUAGGAUGAAACAAUUUGGAGAAGCUCAGAUCGGAAGAGCACACGU
2. target 1 MT 5'PFS GCU 3'PFS GCU (mixed) RNA 1: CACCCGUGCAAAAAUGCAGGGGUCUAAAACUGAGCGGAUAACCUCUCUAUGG RNA 2: GGGAAUGGAUCCACAUCUACGAAUUCGCUCCAUAGAGAGGUUAUCCGCUCAGCUAGAUCGGAAGAGCACACGU
3. target 1 MT 5'PFS GCC 3'PFS UCA (mixed) RNA 1: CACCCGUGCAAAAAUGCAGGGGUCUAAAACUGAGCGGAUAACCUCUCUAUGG RNA 2: GGGAAUGGAUCCACAUCUACGAAUUCGCCCCAUAGAGAGGUUAUCCGCUCAUCAAGAUCGGAAGAGCACACGU

Ans:
1: 9.3 nM; 2: 17 nM; 3: 27.5 nM
